The values you see were collected from PubChem BioAssay (NCI).

System: TK-10 renal
Assay: NCI-60 one-dose screen, 48 h
Conditions: 10 µM unless noted
This is part of a sample that, as a whole, favours compounds with a hit. Of some 83,000 tested, about 20% had one in any assay. The source made the active and inactive calls. How the source made its calls: active means growth percent below 10; inactive means the rest.
Choose the fitting class; nothing outside label 1 = active, label 0 = inactive is accepted.

Field: outcome | Entry: CCn1c(Sc2nnc(Nc3ccccc3)s2)nc2c1c(=O)n(C)c(=O)n2C label 0

Field: outcome | Entry: O=C1CCC(N2C(=O)c3cccc(NCCCC4CCN(CCNC(=O)c5cc6c(o5)C(=O)c5ccccc5C6=O)CC4)c3C2=O)C(=O)N1 (centres undefined) label 1

Field: outcome | Entry: CC(C)CCC[C@@H](C)[C@H]1CCC2C3=CCC4C(=O)C=CC(=O)C4C3CC[C@@]21C (some centres undefined) label 1

Field: outcome | Entry: Nc1ccc2c(S(=O)(=O)O)ccc(S(=O)(=O)O)c2c1 label 0

Field: outcome | Entry: COc1cc(/C=C2\C=C(c3ccccc3)N(CCc3ccccc3)C2=O)cc(OC)c1OC label 0

Field: outcome | Entry: COC1=CC(c2ccc[nH]2)=N/C1=C\c1[nH]c(C)c(C(=O)OCCn2cc(CCC[C@@H]3Cc4cc(O)ccc4C4CC[C@]5(C)[C@@H](O)CC[C@H]5C43)nn2)c1C (some centres undefined) label 0

Field: outcome | Entry: O=C1Nc2ccc(Cl)cc2/C1=N/N=C/c1c[nH]c2ccccc12 label 0

Field: outcome | Entry: C=C1C(=O)O[C@H]2[C@H]1CC/C(COC(=O)/C=C\C(=O)NCc1ccc(Cn3c(=O)sn(-c4ccc(Cl)cc4)c3=O)cc1)=C\CC[C@@]1(C)O[C@@H]21 label 1

Field: outcome | Entry: O=C1CSC(c2ccccc2Cl)N1c1nnc(Cn2cnnc2)o1 (centres undefined) label 0

Field: outcome | Entry: O=S(=O)(NCCNc1cc(-c2c(-c3cccc(O)c3)nc3sccn23)ccn1)c1ccc(Cl)cc1 label 0

Field: outcome | Entry: CCN(CCO)CC(=O)c1cc(Cl)cc(Cl)c1Cl label 0

Field: outcome | Entry: CCCCCCNc1cc(C)nc2ccc(OC)cc12 label 0

Field: outcome | Entry: CC[C@@H](C[C@H](CCO)c1ccccc1)c1cc2ccccc2o1 label 0

Field: outcome | Entry: Clc1ccc(-c2nc(NCCc3ccccc3)nc3c(NCCc4ccccc4)cnn23)cc1 label 0

Field: outcome | Entry: CC(C)N(CCOC(=O)Nc1ccccc1Cl)C(C)C label 0

Field: outcome | Entry: COc1cc(-c2ccc(N=Nc3c(O)c(C(=O)Nc4ccccc4OC)cc4ccccc34)c(OC)c2)ccc1N=Nc1c(O)c(C(=O)Nc2ccccc2OC)cc2ccccc12 label 0

Field: outcome | Entry: N#Cc1cnn2c(-c3ccc(Cl)cc3)nc(NC3CC3)nc12 label 0

Field: outcome | Entry: CC(=O)c1cc2c(o1)C(=O)c1ccccc1C2=O label 1

Field: outcome | Entry: CCOc1ccc(-c2nc3ccc(-c4nc5ccc(N6CCN(C)CC6)cc5[nH]4)cc3[nH]2)cc1OCC label 0
